# experimental-system: T1, EsCas13d, nuclease-dead (Eubacterium siraeum, UniProt B0MS50, R295A;H300A;R849A;H854A)
# T1 sequence: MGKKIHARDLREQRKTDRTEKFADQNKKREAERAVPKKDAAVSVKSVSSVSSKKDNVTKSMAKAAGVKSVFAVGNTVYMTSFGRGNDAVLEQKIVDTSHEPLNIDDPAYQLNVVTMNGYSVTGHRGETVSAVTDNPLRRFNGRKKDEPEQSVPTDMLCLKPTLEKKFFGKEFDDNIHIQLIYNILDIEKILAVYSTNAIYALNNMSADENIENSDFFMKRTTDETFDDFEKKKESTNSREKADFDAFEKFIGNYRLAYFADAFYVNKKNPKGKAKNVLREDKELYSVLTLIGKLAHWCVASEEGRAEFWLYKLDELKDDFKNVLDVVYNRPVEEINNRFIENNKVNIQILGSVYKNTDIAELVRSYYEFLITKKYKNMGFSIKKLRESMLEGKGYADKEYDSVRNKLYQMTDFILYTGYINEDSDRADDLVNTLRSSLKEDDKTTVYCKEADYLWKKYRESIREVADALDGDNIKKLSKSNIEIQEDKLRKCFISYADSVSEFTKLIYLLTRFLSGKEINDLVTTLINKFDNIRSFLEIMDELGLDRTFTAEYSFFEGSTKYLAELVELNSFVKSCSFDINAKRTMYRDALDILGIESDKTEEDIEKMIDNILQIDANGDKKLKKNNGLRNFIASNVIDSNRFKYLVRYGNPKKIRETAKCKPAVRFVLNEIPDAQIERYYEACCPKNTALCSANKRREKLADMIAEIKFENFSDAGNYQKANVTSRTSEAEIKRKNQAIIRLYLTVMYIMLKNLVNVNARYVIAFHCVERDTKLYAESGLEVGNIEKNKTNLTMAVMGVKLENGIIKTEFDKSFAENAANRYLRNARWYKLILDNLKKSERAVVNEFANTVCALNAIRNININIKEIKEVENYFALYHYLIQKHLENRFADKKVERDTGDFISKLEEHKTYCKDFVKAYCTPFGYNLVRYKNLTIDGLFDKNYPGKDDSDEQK
# method-notes: crRNA (strand 1, pre-loaded); Mg2+; 40 mM Tris-HCl pH 7.5, 150 mM NaCl, 6 mM MgCl2, 1 mM DTT, 0.1% Tween-20, 0.2 mg/ml BSA; 25 C; 10 min per concentration, then washed
# assay-context: tags: His6-TwinStrep-SUMO cleaved; N-terminal SNAP kept (SNAP-Surface 488); label: 3' end held by stalled T7 RNA polymerase
measured-metric: pKd
Worth noting: pKd values are minus log10 of concentrations stated in mol/L.

Data request: Quick one: pKd for target 1 A20U,C21A (mixed) RNA 1: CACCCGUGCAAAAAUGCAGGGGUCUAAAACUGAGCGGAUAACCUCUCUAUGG RNA 2: GGGAAUGGAUCCACAUCUACGAAUUCGUACAUUAGAGAGGUUAUCCGCUCACCGAGAUCGGAAGAGCACACGU ?
Data returned: 7.54
